experiment: Cell viability assay (MTS) in DENV replicon cells; assay type: cell-based, baby hamster; conditions: hamster, DENV replicon cells (BHK pD2-hRucPac-2ATG30), DENV replicon BHK cells, MTS, 72 h
Quick reference: CC50 at 72 h of the listed items.

Molecule	CC50 at 72 h
NC(=O)c1nc(F)c[nH]c1=O [Compound 5a, 6-fluoro-3-hydroxypyrazine-2-carboxamide, reference compound]	> 1000 µM
NC(=O)c1nccnc1O [Compound 3a, 3-Hydroxy-2-pyrazinecarboxamide]	> 665 µM
NC(=O)c1nccn([C@@H]2O[C@H](CO)[C@@H](O)[C@H]2O)c1=O	> 1000 µM
NC(=O)c1nc[nH]n1 [Compound 1a, 1,2,4-Triazole-3-carboxamide]	> 1000 µM
